Here the recorded IC50 is given for each entry.
Test system: HepG2
Assay: Antiproliferative activity against human HepG2 cells after 48 hrs by MTT assay
Format: functional, cell-based
Settings: HepG2, 48 h
State just the number; it will be interpreted in nM.

INSERT INTO assay_data (compound, measure, numeric_result) VALUES
  ('O=[N+]([O-])c1cc(C(F)(F)F)cc([N+](=O)[O-])c1Oc1ccc(Br)cc1/C=N\OCc1ccccc1F', 'IC50', 890);

Request: Fill in IC50 for record "O=[N+]([O-])c1cc(C(F)(F)F)cc([N+](=O)[O-])c1Oc1ccccc1/C=N/OCc1ccccc1Cl"
Result: 1170

Request: Indicate its recorded IC50; the compound in question is "O=[N+]([O-])c1cc(C(F)(F)F)cc([N+](=O)[O-])c1Oc1ccccc1/C=N/OCc1ccc(Cl)cc1Cl"
Result: 1020

Request: Respond only with IC50 recorded for "O=[N+]([O-])c1cc(C(F)(F)F)cc([N+](=O)[O-])c1Oc1c(Br)cc(Br)cc1/C=N\OCc1ccccc1"
Result: 1480

Request: Query IC50 for "O=[N+]([O-])c1cc(C(F)(F)F)cc([N+](=O)[O-])c1Oc1ccccc1/C=N\OCc1ccccc1"
Result: 1330

Request: Determine its reported IC50: "O=[N+]([O-])c1cc(C(F)(F)F)cc([N+](=O)[O-])c1Oc1ccc(Cl)cc1/C=N\OCc1ccc(Cl)cc1Cl"
Result: 1280

Request: Return value of IC50 for input "O=[N+]([O-])c1cc(C(F)(F)F)cc([N+](=O)[O-])c1Oc1c(Cl)cc(Cl)cc1/C=N/OCc1ccc(Cl)cc1Cl" , no commentary.
Result: 940

Request: Give reported IC50 value for COc1ccc(/C=C\c2cc(OC)c(OC)c(OC)c2)cc1O [COMBRETASTATIN A4]
Result: 190

---

IC50 values for the molecules below.
Assay: Inhibition of bovine tubulin polymerization after 20 mins by spectrophotometry
Set-up: species or system Bos taurus
Kindly answer with a numeric value in µM, unit omitted.

Check out these entries, answers already filled in.
INSERT INTO assay_data (molecule, numeric_result) VALUES
  ('O=[N+]([O-])c1cc(C(F)(F)F)cc([N+](=O)[O-])c1Oc1ccc(Cl)cc1/C=N\OCc1ccc(Cl)cc1Cl', 7.54),
  ('COc1ccc(/C=C\c2cc(OC)c(OC)c(OC)c2)cc1O [COMBRETASTATIN A4]', 0.7),
  ('O=[N+]([O-])c1cc(C(F)(F)F)cc([N+](=O)[O-])c1Oc1ccc(Cl)cc1/C=N\OCc1ccccc1F', 7.07);

Lab note: next molecule to report on.
Request: # return recorded IC50 for entry "O=[N+]([O-])c1cc(C(F)(F)F)cc([N+](=O)[O-])c1Oc1c(Cl)cc(Cl)cc1/C=N\OCc1ccccc1F"
Result: 3.65

---

Assay: Inhibition of bovine tubulin polymerization after 20 mins by spectrophotometry
Parameters: species or system Bos taurus
measure: IC50 (µM)
Provide only the numeric value, understood in µM.

INSERT INTO results (substance_smiles, reading_unit, numeric_result) VALUES
  ('O=[N+]([O-])c1cc(C(F)(F)F)cc([N+](=O)[O-])c1Oc1c(Cl)cc(Cl)cc1/C=N\OCc1ccccc1', 'µM', 9.02);

Request: Output IC50 of "O=[N+]([O-])c1cc(C(F)(F)F)cc([N+](=O)[O-])c1Oc1ccc(Cl)cc1/C=N\OCc1ccccc1Cl"
Result: 9.05

Request: Given "O=[N+]([O-])c1cc(C(F)(F)F)cc([N+](=O)[O-])c1Oc1ccc(Br)cc1/C=N/OCc1ccccc1Cl" , respond with its IC50.
Result: 13.2
